Molecular target: RAB40B_C77 (Homo sapiens, UniProt Q12829)
Construct: endogenous in cells; host or cells: 22Rv1
Sequence (Q12829 1-278): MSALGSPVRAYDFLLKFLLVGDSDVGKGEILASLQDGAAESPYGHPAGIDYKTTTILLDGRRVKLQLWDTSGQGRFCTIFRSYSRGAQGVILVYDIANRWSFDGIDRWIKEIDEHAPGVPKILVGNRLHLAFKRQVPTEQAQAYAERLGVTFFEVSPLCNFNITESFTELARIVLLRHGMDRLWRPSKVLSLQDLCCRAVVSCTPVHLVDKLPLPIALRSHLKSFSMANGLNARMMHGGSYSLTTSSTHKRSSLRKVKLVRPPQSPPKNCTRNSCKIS
Experiment: IA-DTB cysteine engagement
Assay type: binding
Conditions: 22Rv1 cells, 20 μM probe, 1 h, relative to DMSO
Protocol: Sample preparation: Cells (adherent: 15 cm dishes, suspension: 2 million cells/mL) were treated with electrophilic probes in situ for indicated times and concentrations, washed with ice-cold PBS, and flash frozen in liquid nitrogen. […] Whole cell lysates protein content was measured using a standard DC protein assay (Bio-Rad) and 500 μL (2 mg/mL protein content) were treated with 5 μL of 10 mM 1A-DTB (in DMSO) for 1 h at ambient temperature with occasional vortexing. […]
resultType: % engagement RAB40B_C77 (%)

{"compound": "C=CC(=O)N1C[C@H](c2ccc(Br)cc2)[C@@H]1C(=O)Nc1cccc2cccnc12", "unitDescriptor": "%", "measurement": 100}

1: C=CC(=O)N1C[C@@H](c2ccc(Br)cc2)[C@H]1C(=O)Nc1cccc2cccnc12
2: C=CC(=O)N1C[C@H](c2ccc(Br)cc2)[C@H]1C(=O)Nc1cccc2cccnc12 [MY-3A]
3: C=CC(=O)N1C[C@H](c2ccc(Br)cc2)[C@H]1C(=O)Nc1cccc2cccnc12 [MY-3B]
Prompt line: Order the 3 compounds from highest to lowest % engagement RAB40B_C77. Put the labels in the requested order and list them out.
Response line: 1, 3, 2
(1: 100%, 3: 12.5%, 2: −39%)

###

Target: VPS18_C522 (Homo sapiens)
Construct: endogenous in cells; host or cells: 22Rv1
Sequence (Q9P253 1-973): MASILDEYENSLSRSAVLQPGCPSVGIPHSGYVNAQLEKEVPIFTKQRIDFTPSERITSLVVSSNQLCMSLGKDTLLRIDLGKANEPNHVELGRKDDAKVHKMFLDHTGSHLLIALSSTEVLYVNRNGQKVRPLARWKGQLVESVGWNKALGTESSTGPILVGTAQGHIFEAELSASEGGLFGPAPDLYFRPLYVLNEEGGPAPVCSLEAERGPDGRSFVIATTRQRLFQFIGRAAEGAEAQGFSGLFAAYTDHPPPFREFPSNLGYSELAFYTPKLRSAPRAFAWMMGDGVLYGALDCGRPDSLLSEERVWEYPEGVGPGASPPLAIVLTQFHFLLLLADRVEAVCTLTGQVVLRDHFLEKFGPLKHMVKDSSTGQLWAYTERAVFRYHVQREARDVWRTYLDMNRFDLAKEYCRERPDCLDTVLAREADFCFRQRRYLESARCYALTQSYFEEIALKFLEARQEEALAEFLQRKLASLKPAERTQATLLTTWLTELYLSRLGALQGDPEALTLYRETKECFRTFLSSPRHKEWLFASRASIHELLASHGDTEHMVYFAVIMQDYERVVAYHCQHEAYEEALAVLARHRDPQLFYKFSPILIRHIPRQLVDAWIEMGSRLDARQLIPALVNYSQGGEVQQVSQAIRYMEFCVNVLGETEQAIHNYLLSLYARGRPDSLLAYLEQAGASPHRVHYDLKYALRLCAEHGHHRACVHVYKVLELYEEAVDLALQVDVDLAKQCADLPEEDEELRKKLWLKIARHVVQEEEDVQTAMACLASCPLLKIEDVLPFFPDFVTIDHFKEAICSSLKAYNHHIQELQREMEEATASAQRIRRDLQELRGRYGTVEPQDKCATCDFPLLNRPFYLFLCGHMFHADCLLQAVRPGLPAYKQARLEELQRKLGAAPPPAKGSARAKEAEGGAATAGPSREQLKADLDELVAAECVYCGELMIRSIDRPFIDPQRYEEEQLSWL
Assay: IA-DTB cysteine engagement
Type: binding
Settings: 22Rv1 cells, 20 μM probe, 1 h, relative to DMSO
resultType: % engagement VPS18_C522 (%)

Consider the worked cases shown below.
{"compound": "C=CC(=O)N1C[C@H](c2ccc(Br)cc2)[C@H]1C(=O)Nc1cccc2cccnc12 [MY-3B]", "unitDescriptor": "%", "% engagement VPS18_C522": 21}
{"compound": "C=CC(=O)N1C[C@@H](c2ccc(Br)cc2)[C@H]1C(=O)Nc1cccc2cccnc12", "unitDescriptor": "%", "% engagement VPS18_C522": "−22"}

P: C=CC(=O)N1C[C@H](c2ccc(Br)cc2)[C@@H]1C(=O)Nc1cccc2cccnc12
Q: C=CC(=O)N1C[C@H](c2ccc(Br)cc2)[C@H]1C(=O)Nc1cccc2cccnc12 [MY-3A]
Prompt line: Determine, for P and Q , which has the greater value of % engagement VPS18_C522. Respond with the label that goes with your answer.
Response line: Q
(Q: 88%, P: 45%)

// provenance: patent US20250034216A1
